Every entry's value here was drawn from patent US20230414780A1.

- ASSAYED_TARGET: T1, human TfR ectodomain fused to a mouse IgG1 Fc fragment (human, UniProt P02786 89-760)
- T1 construct: extracellular domain; ectodomain fused to the N-terminal end of the Fc, made in-house; not shown: mouse IgG1 Fc fragment
- T1 sequence (P02786 89-760): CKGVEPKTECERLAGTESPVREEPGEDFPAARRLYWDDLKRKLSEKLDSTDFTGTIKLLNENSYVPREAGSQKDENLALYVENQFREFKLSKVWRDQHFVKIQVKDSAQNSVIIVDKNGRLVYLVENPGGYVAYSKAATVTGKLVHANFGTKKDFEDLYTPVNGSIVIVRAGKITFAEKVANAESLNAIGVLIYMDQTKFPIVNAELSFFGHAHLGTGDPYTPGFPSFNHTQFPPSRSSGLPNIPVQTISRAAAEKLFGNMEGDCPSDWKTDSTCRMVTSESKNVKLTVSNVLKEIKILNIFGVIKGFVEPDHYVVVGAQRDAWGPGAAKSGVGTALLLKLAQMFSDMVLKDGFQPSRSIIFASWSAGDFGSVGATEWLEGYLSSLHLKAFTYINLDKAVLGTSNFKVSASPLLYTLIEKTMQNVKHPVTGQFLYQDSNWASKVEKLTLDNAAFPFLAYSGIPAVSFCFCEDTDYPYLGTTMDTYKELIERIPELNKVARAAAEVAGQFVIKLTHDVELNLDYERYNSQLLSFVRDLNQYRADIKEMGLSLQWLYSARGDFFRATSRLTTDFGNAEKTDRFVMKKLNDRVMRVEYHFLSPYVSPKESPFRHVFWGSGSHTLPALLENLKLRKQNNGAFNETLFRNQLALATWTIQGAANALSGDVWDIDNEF
- PROTOCOL_DETAILS: SPR, at equilibrium
pKd values for the binders below.
Reminder that pKd is minus the log10 of a molar concentration.

q: # get_value(readout='pKd', item= VHH A5 (C5^V5) (VHH) VHH: EVQLVESGGGVVQPGGSLKLSCVASGTDFSINFIRWYRQAPGKQREFVAGFTATGNTNYADSMKGRFTISRDNTKNAVYLQIDSLKPEDTAVYYCAMLDKWGQGTQVTVSS )
a: 6.74

q: Entry C12b (VHH) VHH: QVQLVQSGGGLVQPGGSLRLSCAASGFTFSAYAMSWVRQAPGKGRELVASISRTGDGTYYADGMKGRFTISRDNAENTVSLQINSLKPEDTAIYYCGAGINPTKYWGQGTQVTVSS : reported pKd = ?
a: 5.61

q: Sample VHH A8 (C5^V8) (VHH) VHH: EVQLVESGGGVVQPGGSLKLSCVASGTDFSINFIRWYRQAPGKQREFVAGFTATGNTNYADSMKGRFTISRDNTKNAVYLQIDSLKPEDTAVYYCYMLAKWGQGTQVTVSS — what was its pKd?
a: 7.07

---
q: Fill in the blank: the reported pKd of H1 (VHH, also called phage-H1 (as tracer)) VHH: EVQLVESGGGLVQPGGSLRLSCAASGFASHLYAIGWFRQAPGKEREKVSCISSNDGSTYYADSVKGRFTISRDTVKDMVYLQMNSLKPEDTAVYYCATDLTVHCFMAEYDWWGQGTQVTVSS is ____.
a: 6.65
